- System: MT4
- test-description: Antiviral activity against HIV D545701 in MT4 cells
- Type: functional, cell-based
- test-conditions: Homo sapiens
Items are presented alongside their recorded pIC50.
Please report pIC50 as the negative decimal logarithm of the molar concentration, giving only the number.

Past entries and their recorded results:
{"columns": ["smiles-notation", "assay-metric", "observed"],
 "data": [
  ["CC(C)CN(C[C@@H](O)[C@H](Cc1ccc(OCc2ncc[nH]2)cc1)NC(=O)O[C@H]1CO[C@H]2OCC[C@H]21)S(=O)(=O)c1ccc2c(c1)OCO2", "pIC50", 7.80],
  ["CC(C)CN(C[C@@H](O)[C@H](Cc1ccc(Oc2ccc(CNS(C)(=O)=O)cc2)cc1)NC(=O)O[C@H]1CO[C@H]2OCC[C@H]21)S(=O)(=O)c1ccc2c(c1)OCO2", "pIC50", 7.96],
  ["CC(C)CN(C[C@@H](O)[C@H](Cc1ccc(OCc2cscn2)cc1)NC(=O)O[C@H]1CO[C@H]2OCC[C@H]21)S(=O)(=O)c1ccc2c(c1)OCO2", "pIC50", 8.46]
]}

Here is another compound to look at.
Missing value: pIC50, MT4, entry CC(C)CN(C[C@@H](O)[C@H](Cc1ccc(OCc2cncs2)cc1)NC(=O)O[C@H]1CO[C@H]2OCC[C@H]21)S(=O)(=O)c1ccc2c(c1)OCO2 . Fill in? 8.19

----------
- test-description: Half life in dog at 1 mg/kg
- Assay type: ADME, organism-based, Canis lupus familiaris
- Set-up: dose 1 mg/kg
- test-conditions: in vivo
Items are presented alongside their recorded half-life.
State just the number; it will be interpreted in min.

{"columns": ["smiles-notation", "half-life [min]"],
 "data": [
  ["CC(C)CN(C[C@@H](O)[C@H](Cc1ccc(OCCc2cccs2)cc1)NC(=O)O[C@H]1CO[C@H]2OCC[C@H]21)S(=O)(=O)c1ccc2c(c1)OCO2", 30]
]}

Here is another molecule to look at.
Returns the measured half-life for the input molecule. Input: Cc1nc(COc2ccc(C[C@H](NC(=O)O[C@H]3CO[C@H]4OCC[C@H]43)[C@H](O)CN(CC(C)C)S(=O)(=O)c3ccc4c(c3)OCO4)cc2)cs1 52.2

----------
- test-description: Clearance in rat at 1 mg/kg, iv
- Assay type: ADME, organism-based
- Design: dose 1 mg/kg, route intravenous
- test-conditions: in vivo
assay-metric: clearance
Give the value; after it, write the unit.

{"columns": ["compound", "assay-metric", "observed"],
 "data": [
  ["CC(C)CN(C[C@@H](O)[C@H](Cc1ccc(OCCc2cccs2)cc1)NC(=O)O[C@H]1CO[C@H]2OCC[C@H]21)S(=O)(=O)c1ccc2c(c1)OCO2", "clearance", "27 mL/min/kg"],
  ["Cc1nc(COc2ccc(C[C@H](NC(=O)O[C@H]3CO[C@H]4OCC[C@H]43)[C@H](O)CN(CC(C)C)S(=O)(=O)c3ccc4c(c3)OCO4)cc2)cs1 [BRECANAVIR]", "clearance", "10 mL/min/kg"]
]}

Here is another compound to look at.
Returns the measured clearance for the input compound. Input: CC(C)CN(C[C@@H](O)[C@H](Cc1ccc(OCc2ccccn2)cc1)NC(=O)O[C@H]1CO[C@H]2OCC[C@H]21)S(=O)(=O)c1ccc2c(c1)OCO2 20 mL/min/kg
